Each item that follows carries a reported z-score.
Experiment: P. aeruginosa biofilm formation inhibitors, primary screen, PAO1 strain, BacTiter-Glo luminescence, LB-PBS (AID 1144)
Conditions: 12 h, higher = more signal
Form: value (number only, do not type unit).

For orientation, consider the following solved cases.
- CO[C@H]1O[C@H](CO)[C@@H](OC(=O)c2ccc(Br)cc2)[C@@H]2OC(=O)[C@H](Cc3ccccc3)C/C=C/C[C@@H](Cc3ccccc3)C(=O)O[C@@H]12: -1.16
- C=CCC(OC(C)=O)[C@@H]1[C@@H](N(Cc2ccc(-c3ccccc3)cc2)C(=O)Cc2ccc(F)cc2)c2cc(OCCCO)ccc2N1C(=O)Cc1ccc2ccccc2c1 (some centres not stated): -0.59
- C=CCOC(=O)[C@H]1[C@@H]2C(=O)O[C@@H](c3ccccc3)[C@@H](c3ccccc3)N2[C@@H](c2ccc(OCCOC(=O)[C@H]3C[C@H]4C(=O)N[C@@H](CCCCNC(C)=O)C(=O)N4[C@H]3c3cccc(OCCO)c3)cc2)[C@]12C(=O)Nc1ccc(I)cc12: 0.437
- O=C(NCC(O)CO)[C@@]1(CCS(=O)(=O)c2ccccc2)COC(c2ccc(OCCCO)cc2)=N1 (some centres not stated): 0.063

Problem: Please list z-score recorded for the molecule COc1cc(NN2C(C(O)c3cc(OC)c(OC)c(OC)c3)C=CC3C(=O)N(c4ccccc4)C(=O)C32)cc(OC)c1OC (configuration not stated)
Solution: -0.24

Problem: Please list z-score recorded for the molecule COc1ccc([Si](C)(C)[C@@H]2[C@@H](CCn3cc([C@H](O)c4ccccc4)nn3)O[C@]3(C(=O)N(Cc4cccc(N5C(=O)c6cccc7cccc5c67)c4)c4ccccc43)[C@H]2C)cc1
Solution: 0.692

Problem: Please list z-score recorded for the molecule COCCOC(=O)N1C(=O)[C@@]2(c3cc(C#Cc4ccc(OC)cc4)ccc31)[C@H](c1ccc(OCCO)cc1)N1[C@H](c3ccccc3)[C@H](c3ccccc3)OC(=O)[C@H]1[C@@H]2C(=O)Nc1nc2ccccc2s1
Solution: 0.408

Problem: Please list z-score recorded for the molecule O=C1C2C=CC(C(O)c3ccc(I)cc3)N(Nc3ccccc3)C2C(=O)N1c1ccccc1 (configuration not stated)
Solution: -0.379
